Every entry's value here was drawn from patent US20230057987A1.

target: CT45-IP-HLA-A*02 dextramer (human); test: flow cytometry, dextramer staining of TCR-mRNA electroporated T cells, gated on CD3+
Overview of reported surface expression, % positive events by CT45-IP-HLA-A2*02 dextramer staining across a group of binders:
State just the number; it will be interpreted in %.

INSERT INTO assay_data (binder, value_reported) VALUES
  ('TCR-2 (TCR, V domains shown) Valpha: QKITQTQPGMFVQEKEAVTLDCTYDTSDQSYGLFWYKQPSSGEMIFLIYQGSYDEQNATEGRYSLNFQKARKSANLVISASQLGDSAMYFCAMREGSDAGGTSYGKLTFGQGTILTVHP Vbeta: GVIQSPRHLIKEKRETATLKCYPIPRHDTVYWYQQGPGQDPQFLISFYEKMQSDKGSIPDRFSAQQFSDYHSELNMSSLELGDSALYFCASSPSTGRLNTEAFFGQGTRLTVV', 39.1),
  ('TCR-4 (TCR, V domains shown) Valpha: QSVAQPEDQVNVAEGNPLTVKCTYSVSGNPYLFWYVQYPNRGLQFLLKYITGDNLVKGSYGFEAEFNKSQTSFHLKKPSALVSDSALYFCAAPRDDKIIFGKGTRLHILP Vbeta: GVTQTPKFRVLKTGQSMTLLCAQDMNHEYMYWYRQDPGMGLRLIHYSVGEGTTAKGEVPDGYNVSRLKKQNFLLGLESAAPSQTSVYFCASSYLRTGGNEQFFGPGTRLTVL', 39.1),
  ('TCR-9 (TCR, V domains shown) Valpha: EDVEQSLFLSVREGDSSVINCTYTDSSSTYLYWYKQEPGAGLQLLTYIFSNMDMKQDQRLTVLLNKKDKHLSLRIADTQTGDSAIYFCAEKETAGNKLTFGGGTRVLVKP Vbeta: EPEVTQTPSHQVTQMGQEVILRCVPISNHLYFYWYRQILGQKVEFLVSFYNNEISEKSEIFDDQFSVERPDGSNFTLKIRSTKLEDSAMYFCASTVQSPRTNEQFFGPGTRLTVL', 44),
  ('TCR-15 (TCR, V domains shown) Valpha: KQEVTQIPAALSVPEGENLVLNCSFTDSAIYNLQWFRQDPGKGLTSLLLIQSSQREQTSGRLNASLDKSSGRSTLYIAASQPGDSATYLCAVLLTGKLIFGQGTTLQVKP Vbeta: GVTQTPRYLIKTRGQQVTLSCSPISGHRSVSWYQQTPGQGLQFLFEYFSETQRNKGNFPGRFSGRQFSNSRSEMNVSTLELGDSALYLCASSGGPGPSGEQYFGPGTRLTVT', 22.6);

Now for another entry.
input: For the binder shown here, TCR-1 (TCR, V domains shown) Valpha: QTVTQSQPEMSVQEAETVTLSCTYDTSENNYYLFWYKQPPSRQMILVIRQEAYKQQNATENRFSVNFQKAAKSFSLKISDSQLGDTAMYFCAPLGLVAGSARQLTFGSGTQLTVLP Vbeta: GVSQDPRHKITKRGQNVTFRCDPISEHNRLYWYRQTLGQGPEFLTYFQNEAQLEKSRLLSDRFSAERPKGSFSTLEIQRTEQGDSAMYLCASSTDITSYEQYFGPGTRLTVT , give the reported surface expression, % positive events by CT45-IP-HLA-A2*02 dextramer staining.
output: 8.9
